# TESTED ON: DR1 (DRA*0101/DRB1*0101) (Homo sapiens, UniProt P01903+P01911, A100R/D57E/F55L/F60I/F76Y/I96L/L162R/M171V/P40L/Q125E/R42F/V115G/Y59C)
# METHOD SUMMARY: Competitive peptide-HLA-DR1 binding assay, radioactive spun column
pIC50: −log10 of the molar value. Where no end group is shown, it is not given here.
VALUE TYPE: pIC50

>>> measured_number("YKYVKQNTLKLAT [HA306-318]")
7.47

* * *

List of Kd values.
# TESTED ON: I-E^d (Mus musculus, UniProt P01904+P01915)
# Construct: I-E^dA1-191LZFos; I-E^dB1-198LZJunBSP; made in house
# METHOD SUMMARY: Direct LOCI peptide-MHC-II binding assay, I-E^d
# CONDITIONS USED: I-E^D affinity (nM)
Where no end group is shown, it is not given here.
VALUE TYPE: Kd (nM)

>>> measured_number("HHHHHHIEGRFAALWFRNHFVFGGGTK [6xH Lambda 2(315)]")
26
>>> measured_number("YLFFYRKSV [TERT572Y]")
322
>>> measured_number("YILLKKILSSRFNQM [Plasmodium Falciparum]")
20
>>> measured_number("IQMLKNGKKIPKVEMS [Murine β2m]")
117

* * *

# TESTED ON: DR2a (DRA*0101/DRB5*0101) (Homo sapiens, UniProt P01903+Q30154)
# Construct: DRA*01011-181LZFos; DRB5*01011-190LZJunBSP; made in house
# METHOD SUMMARY: Competitive LOCI peptide-MHC-II binding assay, DR2a
# CONDITIONS USED: IC50, DR2a inhibition assay
Where no end group is shown, it is not given here.
VALUE TYPE: IC50 (nM)

>>> measured_number("YILLKKILSSRFNQM [Plasmodium Falciparum]")
0.6

* * *

# TESTED ON: DR1 (Homo sapiens, UniProt P01903+P01911, A100R/D57E/F55L/F60I/F76Y/I96L/L162R/M171V/P40L/Q125E/R42F/V115G/Y59C)
# METHOD SUMMARY: Effects of additives on the refolding of DR1, spun column assay
# Assay type: biochemical
# CONDITIONS USED: additive titrated in refolding buffer pH 8 without glycerol, 3 nM 125I YHA306-318, 80 nM DR1 α and β chains
VALUE TYPE: Harmfull (to DR1 refolding)

>>> result("CCCCCCCCCCCC(=O)N(C)CC(=O)O [N-Laurylsarcosin]")
"Yes"
>>> result("CCC(C)O (stereo not drawn) [2-Butanol]")
"Yes"
>>> result("C[C@H](CCC(=O)O)[C@H]1CC[C@H]2[C@@H]3CC[C@@H]4C[C@H](O)CC[C@]4(C)[C@H]3C[C@H](O)[C@]12C [DOC, Deoxycholate]")
"Yes/No"
>>> result("OCC(O)CO [Glycerol]")
"No"
>>> result("CC(C)O [Isopropanol]")
"Yes"
>>> result("Oc1ccc(Cl)cc1 [parachlorophenol (pCP), parachlorophenol]")
"Yes"
>>> result("NC(N)=O [Urea]")
"Yes/No"
>>> result("[Cl-].[Na+] [NaCl, Sodium Chloride]")
"Yes"
>>> result("CCCCCCCCO[C@@H]1O[C@H](CO)[C@@H](O)[C@H](O)[C@H]1O [Beta octyl glucoside]")
"No"

* * *

# TESTED ON: DRB3*0301 (DRA*0101/DRB3*0301) (Homo sapiens, UniProt P01903+P79483, A169T/A212P/D57E/G115V/L67V/Q178H/R103Q/R40L/Y55F)
# Construct: DRA*01011-181LZFos; DRB3*03011-190LZJunBSP; made in house
# METHOD SUMMARY: Direct LOCI peptide-MHC-II binding assay, DRB3*0301
VALUE TYPE: Kd (µM)

>>> measured_number("CC[C@H](C)[C@H](NC(=O)[C@@H](N)Cc1ccc(O)cc1)C(=O)N[C@@H](CC(=O)O)C(=O)N[C@H](C(=O)N[C@@H](Cc1c[nH]c2ccccc12)C(=O)N[C@@H](CC(C)C)C(=O)NCC(=O)NCC(=O)N[C@@H](CC(C)C)C(=O)N[C@@H](C)C(=O)N[C@@H](CCC(=O)O)C(=O)N[C@@H](CC(N)=O)C(=O)N[C@@H](Cc1ccccc1)C(=O)N[C@@H](CC(C)C)C(=O)N1CCC[C@H]1C(=O)N[C@@H](Cc1ccc(O)cc1)C(=O)O)C(C)C")
3.18

* * *

# TESTED ON: DR1 (Homo sapiens, UniProt P01903+P01911, A100R/D57E/F55L/F60I/F76Y/I96L/L162R/M171V/P40L/Q125E/R42F/V115G/Y59C)
# METHOD SUMMARY: biochemical
# Type: binding
Where no end group is shown, it is not given here.
VALUE TYPE: EC50 (nM)

>>> measured_number("YKYVKQNTLKLAT [HA306-318]")
2.2

* * *

# TESTED ON: DR2 (DR2a) (Homo sapiens, UniProt P01903+Q30154)
# Construct: DR2a: DRA*0101_1–181/DRB5*0101_1–190; made in house
# METHOD SUMMARY: ELISA-based peptide-MHC class II binding assay, DR2
Where no end group is shown, it is not given here.
VALUE TYPE: EC50

>>> result("YKYVKQNTLKLAT [HA306-318]")
"1.2 nM"

* * *

Catalogue of Kd values
# TESTED ON: DRB1*0813 (DRA*0101/DRB1*0813) (Homo sapiens, UniProt P01903+P01911, A100R/A103L/A169T/F76Y/H45Y/I96L/K41T/L162R/M171V/P40S/Q125H/Q178H/Q39Y/Q99D/R218S/R42G/S66Y/V115G/W38E)
# Construct: DRA*01011-181LZFos; DRB1*08131-190LZJunBSP; made in house
# METHOD SUMMARY: Direct LOCI peptide-MHC-II binding assay, DRB1*0813
VALUE TYPE: Kd (nM)

>>> measured_number("CC[C@H](C)[C@H](NC(=O)[C@@H](N)CCCCN)C(=O)N[C@@H](CC(C)C)C(=O)N[C@@H](CCC(=O)O)C(=O)N1CCC[C@H]1C(=O)N[C@@H](Cc1ccccc1)C(=O)N[C@@H](CCCNC(=N)N)C(=O)N[C@@H](CCCCN)C(=O)N[C@@H](Cc1ccc(O)cc1)C(=O)N[C@H](C(=O)N[C@@H](C)C(=O)N[C@@H](Cc1ccccc1)C(=O)N[C@H](C(=O)N[C@H](C(=O)N1CCC[C@H]1C(=O)O)[C@@H](C)CC)[C@@H](C)O)[C@@H](C)O")
11
>>> measured_number("CC[C@H](C)[C@H](N)C(=O)N[C@H](C(=O)N[C@@H](Cc1ccccc1)C(=O)N[C@@H](CCSC)C(=O)N[C@@H](Cc1c[nH]c2ccccc12)C(=O)N[C@@H](C)C(=O)N[C@H](C(=O)N[C@@H](Cc1c[nH]cn1)C(=O)N[C@@H](Cc1c[nH]cn1)C(=O)O)[C@@H](C)CC)C(C)C")
276
>>> measured_number("CC(C)C[C@H](NC(=O)CNC(=O)[C@H](Cc1c[nH]c2ccccc12)NC(=O)CNC(=O)[C@@H](NC(=O)[C@@H]1CCCN1C(=O)[C@@H](NC(=O)[C@H](C)NC(=O)[C@H](CC(=O)O)NC(=O)[C@H](C)NC(=O)[C@H](Cc1ccccc1)NC(=O)[C@@H](NC(=O)[C@H](CCC(N)=O)NC(=O)[C@H](CS)NC(=O)[C@H](CC(C)C)NC(=O)[C@@H](N)Cc1ccc(O)cc1)C(C)C)[C@@H](C)O)[C@@H](C)O)C(=O)O")
2990

* * *

# TESTED ON: DP401 (DPA1*0103/DPB1*0401) (Homo sapiens, UniProt P04440+P20036)
# METHOD SUMMARY: Direct LOCI peptide-MHC-II binding assay, DP401
# CONDITIONS USED: KD, DP401
Where no end group is shown, it is not given here.
VALUE TYPE: Kd

>>> result("YILLKKILSSRFNQM [Plasmodium Falciparum]")
"800 pM"

* * *

Quick list: Kd per entry.
# TESTED ON: DR3 (DRA*0101/DRB1*0301) (Homo sapiens, UniProt P01903+P01911, A100K/A102G/A103R/A169T/F55Y/I96L/K41T/L162R/M171V/P40S/Q125H/Q178H/Q39Y/R42S/S66N/T106N/T262R/W38E/Y61H)
# Construct: DRA*01011-181LZFos; DRB1*03011-190LZJunBSP; made in house
# METHOD SUMMARY: Direct LOCI peptide-MHC-II binding assay, DR3
# CONDITIONS USED: pH 6-7; 48 h 18°C; read-out: DR3 affinity
Where no end group is shown, it is not given here.
VALUE TYPE: Kd (nM)

>>> measured_number("RMIAISAKV [Pox.o42.con.im. A2]")
516
>>> measured_number("YILFLVKMNALRRLPV")
39
>>> measured_number("YKYVKQNTLKLAT [HA306-318]")
13
